The values you see were collected from ChEMBL document CHEMBL1157539.

- Test system: Plasmodium falciparum
- assay remarks: GSK_TCMDC: Inhibition of Plasmodium falciparum 3D7 in whole red blood cells, using parasite LDH activity as an index of growth. Test compounds present at 2uM
- Format: functional
Please provide measured Inhibition for the entries that follow.
Write down the numeric answer in % and omit the unit.

Query: Name the recorded Inhibition of the molecule listed here: COc1ccc(Cn2c(Nc3cccc(C(F)(F)F)c3)nc3cc(C(=O)NCCN4CCCC4)cnc32)cc1Cl
Result: 97

Query: Recall and state the measured Inhibition for CCn1c(-c2nonc2N)nc2c(-c3cccc(NC(=O)Nc4cccc(Cl)c4)c3)ncc(OCCCN)c21.O=C(O)C(F)(F)F .
Result: 91

Query: Give reported Inhibition value for O=C(Nc1ccc(Cl)cc1)Nc1cccc(-c2ccc(-c3nc4ccccc4[nH]3)cc2)c1
Result: 87

Query: Note Inhibition for the molecule shown: O=C(Nc1ccc(N2CCCCC2)c(Cl)c1)c1nc[nH]n1
Result: 93

Query: Give the reported Inhibition for this molecule. O=C(/C=C/c1ccc(Cl)c(Cl)c1)NCCCCCN1CCCC(CCCNC(=O)Nc2ccc(C(F)(F)F)cc2)C1 (stereo not drawn)
Result: 100

Query: Input COc1cc2nc(NCc3ccccc3)nc(NCc3ccccc3)c2cc1OC , output reported Inhibition.
Result: 100

Query: Tell us which Inhibition value is on record for COc1c(C2CCN(CCCCNC(=O)c3ccc(NC(=O)c4ccc(C#N)cc4)cc3)CC2)ccc2c1CCCC2
Result: 97

Query: Query Inhibition for CC[C@H](C)CNC(=O)c1cncc(-c2ccc(CN3CCC(N4CCCC4)CC3)cc2)c1.O=C(O)C(F)(F)F
Result: 100

Query: Recall and state the measured Inhibition for COc1cccc2c(NN=Cc3ccccc3F)ccnc12 .
Result: 96

Query: Consider the molecule Cc1cnn(-c2cccc(C(=O)NC3CCC(CCN4CCc5ccc(C#N)cc5CC4)CC3)c2)c1.Cl (stereo not drawn) . State its measured Inhibition.
Result: 94

Query: Return Inhibition (reported value) for this molecule: FC(F)(F)c1ccc2[nH]c(-c3cccc(-c4cccc(CN5CCN(c6ccncc6)CC5)c4)c3)nc2c1.O=C(O)C(F)(F)F
Result: 100

Query: Supply recorded Inhibition for COc1ccc(Cc2cnc3nc(N)nc(N)c3c2C)cc1OC.O=S(=O)(O)CCO here.
Result: 93

Query: Look up and state reported Inhibition for COc1cc2nc(N3CCC(CNC(=O)/C=C/c4ccccc4F)CC3)nc(N)c2cc1OC.Cl
Result: 100

Query: Supply Inhibition value. Item: O=C1Nc2cccc3c2C1(CCCN1CCC(c2c[nH]c4cc(C(F)(F)F)ccc24)CC1)CCC3 (stereo not drawn)
Result: 89

Query: State its Inhibition: CC(CN1CCN(C)CC1)C(=O)Nc1ccc(-c2ccc(-c3nc4cc(C(F)(F)F)ccc4[nH]3)cc2)cc1 (stereo not drawn)
Result: 100

Query: Answer with the recorded Inhibition of Clc1ccc(Nc2nc3ccc(Cl)cc3nc2Nc2ccc(Cl)cc2)cc1 only.
Result: 99

Query: Please give measured Inhibition of the following entry: O=C(Nc1cccc(C(F)(F)F)c1)c1ccc(S(=O)(=O)NC2CCN(CC3CCCCC3)C2)cc1.O=C(O)C(F)(F)F (stereo not drawn)
Result: 92

Query: Let me know recorded Inhibition for CC(C)(C)c1ccc(NC(=O)c2cccc(CN3CCN(Cc4cccc(O)c4)CC3)c2)cc1.O=C(O)C(F)(F)F , thanks.
Result: 92
